Reported internalized receptor is given for each of the following molecules.
System: GlyR α1-β
assay.summary: Receptor internalization assay (pre-labeled GlyRs, confocal microscopy) in HEK293 cells
Assay type: cell-based, human
experimental.parameters: 200 nM modulator, 15 min, 37°C; untreated cells 1.7 ± 0.4 dots/cell; ± SEM
Give your result in dots/cell as a bare value.

Past entries and their recorded results:
- molecule: "O=S(=O)(NCCNC/C=C/c1ccc(Br)cc1)c1cccc2cnccc12"
  internalized receptor, dots/cell: 4.0
- molecule: "C=C[C@@]1(C)CC(=O)[C@]2(O)[C@@]3(C)[C@@H](O)CCC(C)(C)[C@@H]3[C@H](O)[C@H](OC(C)=O)[C@@]2(C)O1"
  internalized receptor, dots/cell: 6.9

The molecule identified as CCCCCCCCCCCCCC(=O)O[C@@H]1[C@@H](C)[C@@]2(O)[C@@H](C=C(CO)C[C@]3(O)C(=O)C(C)=C[C@@H]23)[C@@H]2C(C)(C)[C@]12OC(C)=O [PMA, phorbol-12-myristate-13-acetate] registered its internalized receptor at 3.9

get_value(item= `O=C1NCc2c1c1c3ccccc3[nH]c1c1[nH]c3ccccc3c21` , readout=internalized receptor) returns 2.3

----------
System: human homomeric α1 GlyRs
assay.summary: Whole-cell patch-clamp of glycine induced currents, modulators in the intracellular buffer, HEK293 cells expressing GlyR α1
Assay type: cell-based
experimental.parameters: 0.25 μM intracellular modulator; one-way ANOVA
property.label: change of Imax at t = 10 min normalized to t = 0

- compound: "O=S(=O)(NCCNC/C=C/c1ccc(Br)cc1)c1cccc2cnccc12 [H-89]"
  assay.value: "not significant"
- compound: "C=C[C@@]1(C)CC(=O)[C@]2(O)[C@@]3(C)[C@@H](O)CCC(C)(C)[C@@H]3[C@H](O)[C@H](OC(C)=O)[C@@]2(C)O1 [Forskolin]"
  assay.value: "significantly reduced"
- compound: "O=C1NCc2c1c1c3ccccc3[nH]c1c1[nH]c3ccccc3c21 [Staurosporine aglycon]"
  assay.value: "not significant"
- compound: "CCCCCCCCCCCCCC(=O)O[C@@H]1[C@@H](C)[C@@]2(O)[C@@H](C=C(CO)C[C@]3(O)C(=O)C(C)=C[C@@H]23)[C@@H]2C(C)(C)[C@]12OC(C)=O [PMA, phorbol-12-myristate-13-acetate]"
  assay.value: "significantly reduced"

----------
This section presents compounds with their documented Fraction of desensitizing cells values.
Tested on: human homomeric α1 GlyRs
assay.summary: Whole-cell patch-clamp of glycine induced currents, modulators in the intracellular buffer, HEK293 cells expressing GlyR α1
Assay type: cell-based
experimental.parameters: GlyR α1; 0.5 μM modulator in intracellular buffer; mean ± SEM

Please review the entries below; each comes with its answer.
- compound: "CCCCCCCCCCCCCC(=O)O[C@@H]1[C@@H](C)[C@@]2(O)[C@@H](C=C(CO)C[C@]3(O)C(=O)C(C)=C[C@@H]23)[C@@H]2C(C)(C)[C@]12OC(C)=O [PMA, phorbol-12-myristate-13-acetate]"
  property.label: "Fraction of desensitizing cells"
  assay.value: "0.05 ± 0.05"
- compound: "O=C1NCc2c1c1c3ccccc3[nH]c1c1[nH]c3ccccc3c21"
  property.label: "Fraction of desensitizing cells"
  assay.value: "0.10 ± 0.05"
- compound: "C=C[C@@]1(C)CC(=O)[C@]2(O)[C@@]3(C)[C@@H](O)CCC(C)(C)[C@@H]3[C@H](O)[C@H](OC(C)=O)[C@@]2(C)O1"
  property.label: "Fraction of desensitizing cells"
  assay.value: "0.57 ± 0.12"

According to the records, this compound `O=S(=O)(NCCNC/C=C/c1ccc(Br)cc1)c1cccc2cnccc12` displays Fraction of desensitizing cells of 0.07 ± 0.03
